quantityKind: melting point (°C)

Consider the worked cases shown below.
| compound | melting point / °C |
| --- | --- |
| CCOC(=O)c1[nH]cc2c1NC1=C(C(=O)CCC1)C2c1cnc(Sc2nc3ccccc3[nH]2)s1 (stereo not drawn) [Example 118] | 194 |
| CCOC(=O)c1[nH]cc2c1NC1=C(C(=O)CCC1)C2c1ccc(Sc2nc3cc(Cl)c(Cl)cc3[nH]2)o1 (stereo not drawn) [Example 116] | 180 |

(I) CCOC(=O)c1[nH]cc2c1NC1=C(C(=O)CNC1)C2c1ccc(Sc2nc3cc(OC)ccc3[nH]2)o1 (stereo not drawn) [Example 111]
(II) CCOC(=O)c1[nH]cc2c1NC1=C(C(=O)CCC1)C2c1ccc(Sc2nc3cc(OC)ccc3[nH]2)o1 (stereo not drawn) [Example 110]
Request: Name the one with the greater melting point value, either I or II as given. Kindly give the label for the entry you pick.
Response: I
(I: 248 °C, II: 140 °C)

====

- assayTarget: Aurora2 (Aurora-A) (Homo sapiens, UniProt O14965)
- Construct: Aurora-A: the full length recombinant protein including an N-terminal poly-histidine tail has been expressed in E. coli; poly-histidine (N)
- Sequence (O14965 whole entry): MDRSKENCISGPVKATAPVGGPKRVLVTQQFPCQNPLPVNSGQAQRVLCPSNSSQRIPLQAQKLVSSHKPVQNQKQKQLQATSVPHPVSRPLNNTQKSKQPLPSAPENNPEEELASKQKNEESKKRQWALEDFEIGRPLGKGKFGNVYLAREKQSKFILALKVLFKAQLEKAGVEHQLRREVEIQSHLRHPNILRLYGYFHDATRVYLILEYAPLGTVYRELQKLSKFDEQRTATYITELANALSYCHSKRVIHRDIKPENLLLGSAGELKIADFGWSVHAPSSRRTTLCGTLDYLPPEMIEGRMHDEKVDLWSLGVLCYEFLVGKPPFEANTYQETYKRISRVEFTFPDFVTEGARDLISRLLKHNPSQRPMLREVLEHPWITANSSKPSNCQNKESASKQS
- experimentNotes: Aurora 2 (Aurora A) kinase radioactivity scintillation assay using nickel chelate Flash plates
- conditionContext: 10 nM Aurora-A, 500 nM NuMA substrate, 1 μM ATP with [33P] ATP, 10 mM MgCl2, 30 minutes, 37° C.
pIC50: −log10 of the molar value.
quantityKind: pIC50

Reference set (4 entries):
| compound | pIC50 |
| --- | --- |
| COc1ccc2[nH]c(Sc3ccc(C4C5=C(CC(C)(C)CC5=O)Nc5n[nH]cc54)o3)nc2c1 (stereo not drawn) [Example 81] | 7.48 |
| CCOC(=O)c1[nH]cc2c1NC1=C(C(=O)CCC1)C2c1ccc(Sc2nc3cc(C)ccc3[nH]2)o1 (stereo not drawn) [Example 108] | 7.39 |
| CCOC(=O)c1[nH]cc2c1NC1=C(C(=O)CNC1)C2c1ccc(Sc2nc3cc(F)c(F)cc3[nH]2)o1 (stereo not drawn) [Example 115] | 7.32 |
| CCOC(=O)c1[nH]cc2c1NC1=C(C(=O)CN(C(=O)OC(C)(C)C)C1)C2c1ccc(Sc2nc3cc(Cl)ccc3[nH]2)o1 (stereo not drawn) [Example 130] | 6.36 |

(a) CCOC(=O)c1[nH]cc2c1NC1=C(C(=O)CCC1)C2c1ccc(Sc2nc3cc(OC(F)(F)F)ccc3[nH]2)o1 (stereo not drawn) [Example 150]
(b) CN1C2=C(C(=O)CCC2)C(c2ccc(Sc3nc4ccccc4[nH]3)o2)c2c[nH]nc21 (stereo not drawn) [Example 59]
Request: Would you kindly point out which of a and b has the smaller pIC50 figure? Your answer should be the label of the entry you select.
Response: b
(b: 5.65, a: 7.54)

This collection of values is drawn from patent US8163768B2.
